System: S. aureus VRSA
measurement-description: MIC, broth microdilution, vancomycin-resistant S. aureus (VRSA)
Type: cell-based, Staphylococcus aureus
experimental-parameters: VRSA; ratio of MIC of vancomycin and MIC of analogue
quantity-kind: MIC-fold improvement vs. vancomycin
Enter a number only.

{"molecule": "CCCCc1ccc(NC(=O)CNC(=O)[C@H]2NC(=O)[C@H]3NC(=O)[C@H](NC(=O)[C@@H]4NC(=O)[C@H](CC(N)=O)NC(=O)[C@H](NC(=O)[C@@H](CC(C)C)NC)[C@H](O)c5ccc(c(Cl)c5)Oc5cc4cc(c5O[C@@H]4O[C@H](CO)[C@@H](O)[C@H](O)[C@H]4O[C@H]4C[C@](C)(N)[C@H](O)[C@H](C)O4)Oc4ccc(cc4Cl)[C@H]3O)c3ccc(O)c(c3)-c3c(O)cc(O)cc32)cc1 [Vanc-39]", "val": 128}

Hi! What's the reported MIC-fold improvement vs. vancomycin for CNC(CC(C)C)C(=O)NC1C(=O)NC(CC(N)=O)C(=O)NC2C(=O)NC3C(=O)NC(C(=O)NC(C(=O)NCC(=O)Nc4cccc(OC)c4)c4cc(O)cc(O)c4-c4cc3ccc4O)C(O)c3ccc(c(Cl)c3)Oc3cc2cc(c3OC2OC(CO)C(O)C(O)C2OC2CC(C)(N)C(O)C(C)O2)Oc2ccc(cc2Cl)C1O (centres unmarked) [Vanc-12] on S. aureus VRSA?
8

---

Test system: E. faecalis VRE 6
measurement-description: MIC, broth microdilution, vancomycin-resistant E. faecalis VRE 6 (VanA)
Type: cell-based, Enterococcus faecalis
experimental-parameters: Enterococcus faecalis VRE 6 (vancomycin-resistant); read-out: MIC
quantity-kind: MIC
# do not omit the unit; it follows the number

{"molecule": "CNC(CC(C)C)C(=O)NC1C(=O)NC(CC(N)=O)C(=O)NC2C(=O)NC3C(=O)NC(C(=O)NC(C(=O)NCCCNC(=O)c4ccc5cc(NS(=O)(=O)c6ccc(C)cc6)ccc5c4)c4cc(O)cc(O)c4-c4cc3ccc4O)C(O)c3ccc(c(Cl)c3)Oc3cc2cc(c3OC2OC(CO)C(O)C(O)C2OC2CC(C)(N)C(O)C(C)O2)Oc2ccc(cc2Cl)C1O (stereo not drawn) [Vanc-65]", "MIC": "3.13 µM"}
{"molecule": "CN[C@H](CC(C)C)C(=O)N[C@H]1C(=O)N[C@@H](CC(N)=O)C(=O)N[C@H]2C(=O)N[C@H]3C(=O)N[C@H](C(=O)N[C@H](C(=O)NCC(=O)Nc4ccc(Oc5ccccc5)cc4)c4cc(O)cc(O)c4-c4cc3ccc4O)[C@H](O)c3ccc(c(Cl)c3)Oc3cc2cc(c3O[C@@H]2O[C@H](CO)[C@@H](O)[C@H](O)[C@H]2O[C@H]2C[C@](C)(N)[C@H](O)[C@H](C)O2)Oc2ccc(cc2Cl)[C@H]1O [Vanc-71]", "MIC": "3.13 µM"}
{"molecule": "CCc1cccc(C)c1NC(=O)CNC(=O)C1NC(=O)C2NC(=O)C(NC(=O)C3NC(=O)C(CC(N)=O)NC(=O)C(NC(=O)C(CC(C)C)NC)C(O)c4ccc(c(Cl)c4)Oc4cc3cc(c4OC3OC(CO)C(O)C(O)C3OC3CC(C)(N)C(O)C(C)O3)Oc3ccc(cc3Cl)C2O)c2ccc(O)c(c2)-c2c(O)cc(O)cc21 (stereo not drawn) [Vanc-19]", "MIC": "3.13 µM"}
{"molecule": "CN[C@H](CC(C)C)C(=O)N[C@H]1C(=O)N[C@@H](CC(N)=O)C(=O)N[C@H]2C(=O)N[C@H]3C(=O)N[C@H](C(=O)N[C@H](C(=O)NCC(=O)Nc4ccc(OC)c(OC)c4)c4cc(O)cc(O)c4-c4cc3ccc4O)[C@H](O)c3ccc(c(Cl)c3)Oc3cc2cc(c3O[C@@H]2O[C@H](CO)[C@@H](O)[C@H](O)[C@H]2O[C@H]2C[C@](C)(N)[C@H](O)[C@H](C)O2)Oc2ccc(cc2Cl)[C@H]1O [Vanc-7]", "MIC": "12.5 µM"}
{"molecule": "CNC(CC(C)C)C(=O)NC1C(=O)NC(CC(N)=O)C(=O)NC2C(=O)NC3C(=O)NC(C(=O)NC(C(=O)NCC(=O)Nc4ccc(-c5ccccc5)cc4)c4cc(O)cc(O)c4-c4cc3ccc4O)C(O)c3ccc(c(Cl)c3)Oc3cc2cc(c3OC2OC(CO)C(O)C(O)C2OC2CC(C)(N)C(O)C(C)O2)Oc2ccc(cc2Cl)C1O (stereo not drawn) [Vanc-83]", "MIC": "0.78 µM"}

Kindly review the next molecule as well.
Need MIC, item CNC(CC(C)C)C(=O)NC1C(=O)NC(CC(N)=O)C(=O)NC2C(=O)NC3C(=O)NC(C(=O)NC(C(=O)NCC(=O)Nc4ccc(-c5ccc(Cl)cc5)cc4)c4cc(O)cc(O)c4-c4cc3ccc4O)C(O)c3ccc(c(Cl)c3)Oc3cc2cc(c3OC2OC(CO)C(O)C(O)C2OC2CC(C)(N)C(O)C(C)O2)Oc2ccc(cc2Cl)C1O (stereo not drawn) [Vanc-84]
0.78 µM
